Biological target: human A3 receptor subtype (Homo sapiens, UniProt P0DMS8)
Construct: purchased Receptor Biology (Beltsville, Md.) RB-HA3; host or cells: HEK-293, stably expressing
Sequence (P0DMS8 whole entry): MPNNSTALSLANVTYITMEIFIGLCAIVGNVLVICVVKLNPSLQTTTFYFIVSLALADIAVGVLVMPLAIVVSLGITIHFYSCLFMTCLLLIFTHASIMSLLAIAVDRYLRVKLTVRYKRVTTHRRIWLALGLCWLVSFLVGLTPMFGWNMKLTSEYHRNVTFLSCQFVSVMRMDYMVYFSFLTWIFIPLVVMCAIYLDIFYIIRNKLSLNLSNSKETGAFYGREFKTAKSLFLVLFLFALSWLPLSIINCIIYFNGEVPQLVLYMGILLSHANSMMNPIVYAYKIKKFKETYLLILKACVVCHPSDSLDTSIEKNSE
Assay: Adenosine 3 receptor competition radioligand binding, [125I]AB-MECA, HEK293 membranes
Conditions: Table 6; read-out: Ki − A3
Quantity kind: pKi
# reply with the number alone; pKi is -log10 of concentration in mol/L

Fill blank: measured pKi of the compound O[C@H]1CC[C@H](Nc2nc(-c3ccccc3)nc3[nH]cnc23)CC1 is ____.
6.76

Fill blank: measured pKi of the compound NC(=O)[C@@H]1CCCN1c1nc(-c2ccccc2)nc2[nH]ncc12 is ____.
6.58

Fill blank: measured pKi of the compound O[C@H]1CC[C@H](Nc2nc(-c3ccccc3)nc3[nH]ncc23)CC1 is ____.
6.18
